src = patent US20240043504A1

molecular target: SARS-CoV-2 RBD extracellular domain expressed with a C-terminal mouse IgG2a (SARS-COV-2 RBD-mFc) (SARS-CoV-2)
Assay metric: kon (M⁻¹ s⁻¹)
Enter your answer as a number in M⁻¹ s⁻¹; do not include the unit.

Take a look at these entries with their results.
mAb10913 (antibody, V domains shown) VH: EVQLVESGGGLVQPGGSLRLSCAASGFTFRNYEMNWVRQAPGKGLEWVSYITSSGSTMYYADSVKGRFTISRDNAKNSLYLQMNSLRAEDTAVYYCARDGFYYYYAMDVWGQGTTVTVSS VL: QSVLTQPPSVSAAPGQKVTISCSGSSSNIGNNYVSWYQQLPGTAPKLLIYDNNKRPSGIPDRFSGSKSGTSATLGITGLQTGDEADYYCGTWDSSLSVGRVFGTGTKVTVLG
623000
mAb10982 (antibody, V domains shown) VH: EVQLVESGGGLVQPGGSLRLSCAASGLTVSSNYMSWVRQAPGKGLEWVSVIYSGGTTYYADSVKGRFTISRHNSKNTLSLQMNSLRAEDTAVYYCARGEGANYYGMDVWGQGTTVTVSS VL: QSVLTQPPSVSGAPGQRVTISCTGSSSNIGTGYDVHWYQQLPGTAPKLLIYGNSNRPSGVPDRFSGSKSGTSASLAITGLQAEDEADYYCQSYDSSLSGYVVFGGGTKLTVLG
310000
mAb10935 (antibody, V domains shown) VH: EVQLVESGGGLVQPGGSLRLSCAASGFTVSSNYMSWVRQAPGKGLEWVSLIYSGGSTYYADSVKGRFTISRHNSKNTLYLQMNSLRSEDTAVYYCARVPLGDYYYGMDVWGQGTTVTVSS VL: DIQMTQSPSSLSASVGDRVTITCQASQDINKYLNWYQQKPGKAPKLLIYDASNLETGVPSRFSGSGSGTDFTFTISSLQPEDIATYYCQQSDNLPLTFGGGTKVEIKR
383000
mAb10921 (antibody, V domains shown) VH: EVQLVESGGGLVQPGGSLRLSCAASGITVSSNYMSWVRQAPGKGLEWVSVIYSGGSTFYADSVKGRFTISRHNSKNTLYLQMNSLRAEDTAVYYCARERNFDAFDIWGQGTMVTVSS VL: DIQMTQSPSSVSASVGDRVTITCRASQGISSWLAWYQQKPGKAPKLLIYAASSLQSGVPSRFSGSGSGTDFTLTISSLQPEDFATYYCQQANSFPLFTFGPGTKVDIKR
266000
mAb10939 (antibody, V domains shown) VH: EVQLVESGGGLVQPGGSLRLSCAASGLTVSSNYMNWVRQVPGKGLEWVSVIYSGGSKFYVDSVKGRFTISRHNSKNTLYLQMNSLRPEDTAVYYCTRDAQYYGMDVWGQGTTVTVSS VL: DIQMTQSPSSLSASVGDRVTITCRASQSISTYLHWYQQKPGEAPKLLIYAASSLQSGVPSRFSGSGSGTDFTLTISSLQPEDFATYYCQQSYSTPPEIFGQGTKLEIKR
299000

Now consider a different binder.
Please list kon recorded for the binder mAb10971 (antibody, V domains shown) VH: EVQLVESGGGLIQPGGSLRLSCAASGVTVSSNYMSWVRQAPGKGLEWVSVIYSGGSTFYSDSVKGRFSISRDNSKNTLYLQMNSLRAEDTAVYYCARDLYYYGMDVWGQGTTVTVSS VL: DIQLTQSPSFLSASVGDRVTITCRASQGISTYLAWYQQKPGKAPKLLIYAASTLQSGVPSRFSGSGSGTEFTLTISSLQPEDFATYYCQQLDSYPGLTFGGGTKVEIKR
395000
